// Aspergillus flavus ATCC MYA-1004 MIC90 records
Answers are plain numbers, in µg/mL.

Recorded results for 3 molecules are shown here.
1) C[C@@H](N1NCc2ccccc21)[C@](O)(Cn1cncn1)c1ccc(F)cc1F : 2
2) C[C@@H](N1Cc2cc(NCc3ccc(Cl)cc3)ccc2N1)[C@](O)(Cn1cncn1)c1ccc(F)cc1F : 0.5
3) Cc1nn([C@H](C)[C@](O)(Cn2cncn2)c2ccc(F)cc2F)c2ccc([N+](=O)[O-])cc12 : 8

// next item, MIC90 requested
Task item: Look up and state reported MIC90 for C[C@@H](n1ncc2cc([N+](=O)[O-])ccc21)[C@](O)(Cn1cncn1)c1ccc(F)cc1F
Reply: 1

---

procedure_text: Assay for acute toxicity
Type: in vivo
test_parameters: mice; oral administration, to a dose of 1000 mg/kg; observed for two weeks; suspension in 25% beta-hydroxypropyl methylcellulose base or polyethylene glycol 400
recorded_endpoint: acute toxicity: toxic syndromes observed

1. C[C@@H](N1Cc2cc(NCc3ccc(Cl)cc3)ccc2N1)[C@](O)(Cn1cncn1)c1ccc(F)cc1F [Example 245] : no toxic syndromes
2. C[C@@H](n1cc2cc(Br)ccc2n1)[C@](O)(Cn1cncn1)c1ccc(F)cc1F [Example 60] : no toxic syndromes
3. C[C@@H](n1ncc2cc(N(C)C)ccc21)[C@](O)(Cn1cncn1)c1ccc(F)cc1F [Example 310] : no toxic syndromes
4. C[C@@H](n1ncc2cc([N+](=O)[O-])ccc21)[C@](O)(Cn1cncn1)c1ccc(F)cc1F [Example 234] : no toxic syndromes

We next turn to a different compound, shown below.
Task item: Complete the entry with acute toxicity: toxic syndromes observed for C[C@@H](N1NCc2ccccc21)[C@](O)(Cn1cncn1)c1ccc(F)cc1F [Example 50]
Reply: no toxic syndromes
